Hey, just so you know, these numbers are from patent US20190322730A1.

# experimental_system: human complement component C3 (human, UniProt P01024 23-667; P01024 672-1663)
# Sequence (P01024 23-667, chain 1 of 2): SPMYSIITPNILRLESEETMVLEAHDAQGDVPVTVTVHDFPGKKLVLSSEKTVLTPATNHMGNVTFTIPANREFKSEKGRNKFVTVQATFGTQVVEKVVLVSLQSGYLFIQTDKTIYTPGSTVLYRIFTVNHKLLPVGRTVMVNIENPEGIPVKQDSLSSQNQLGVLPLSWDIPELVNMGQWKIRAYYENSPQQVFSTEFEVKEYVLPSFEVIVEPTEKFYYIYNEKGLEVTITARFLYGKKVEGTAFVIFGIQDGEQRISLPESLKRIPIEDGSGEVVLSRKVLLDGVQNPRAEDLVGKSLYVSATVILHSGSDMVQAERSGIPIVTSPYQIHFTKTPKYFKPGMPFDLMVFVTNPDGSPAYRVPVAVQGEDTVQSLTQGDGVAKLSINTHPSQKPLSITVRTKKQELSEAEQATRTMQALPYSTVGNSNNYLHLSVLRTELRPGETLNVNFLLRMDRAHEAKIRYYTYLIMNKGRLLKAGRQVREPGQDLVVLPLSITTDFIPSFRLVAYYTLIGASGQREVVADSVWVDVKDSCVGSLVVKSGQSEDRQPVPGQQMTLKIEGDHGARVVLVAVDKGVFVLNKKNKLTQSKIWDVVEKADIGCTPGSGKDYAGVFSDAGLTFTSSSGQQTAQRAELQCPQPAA
# Sequence (P01024 672-1663, chain 2 of 2): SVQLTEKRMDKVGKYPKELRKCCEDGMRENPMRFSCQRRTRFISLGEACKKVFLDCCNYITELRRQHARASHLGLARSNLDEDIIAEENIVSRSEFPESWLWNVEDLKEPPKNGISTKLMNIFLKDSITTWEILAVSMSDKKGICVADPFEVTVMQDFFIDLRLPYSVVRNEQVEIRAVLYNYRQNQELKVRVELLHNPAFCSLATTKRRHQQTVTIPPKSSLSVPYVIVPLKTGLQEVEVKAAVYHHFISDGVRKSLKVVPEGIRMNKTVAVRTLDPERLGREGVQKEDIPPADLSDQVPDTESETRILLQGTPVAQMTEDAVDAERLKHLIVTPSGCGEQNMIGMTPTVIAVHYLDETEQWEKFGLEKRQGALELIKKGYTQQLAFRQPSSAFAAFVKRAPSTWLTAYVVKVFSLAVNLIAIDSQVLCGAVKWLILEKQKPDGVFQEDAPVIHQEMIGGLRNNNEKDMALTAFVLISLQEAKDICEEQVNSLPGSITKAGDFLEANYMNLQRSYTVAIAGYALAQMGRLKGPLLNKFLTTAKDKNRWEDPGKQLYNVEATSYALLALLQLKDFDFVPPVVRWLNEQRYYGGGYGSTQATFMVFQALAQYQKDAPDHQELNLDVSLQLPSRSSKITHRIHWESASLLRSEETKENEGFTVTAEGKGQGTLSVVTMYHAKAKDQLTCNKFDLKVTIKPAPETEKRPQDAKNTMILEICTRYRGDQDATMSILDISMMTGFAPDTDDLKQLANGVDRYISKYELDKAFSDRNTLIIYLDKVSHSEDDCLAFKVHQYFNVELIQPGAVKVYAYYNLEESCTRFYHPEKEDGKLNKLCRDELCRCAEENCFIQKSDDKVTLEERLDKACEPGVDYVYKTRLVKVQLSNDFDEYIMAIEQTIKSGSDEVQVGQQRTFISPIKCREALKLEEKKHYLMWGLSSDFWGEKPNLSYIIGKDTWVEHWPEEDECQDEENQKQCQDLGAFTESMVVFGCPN
# method_summary: cell-based or functional assay
Quick reference for Hemolytic Assay IC50, Human AP among some binders

binder	value_units	Hemolytic Assay IC50, Human AP
antibody 63A3 (antibody, V domains shown, Mouse hybridoma antibody) VH: DVQLQESGPGLVKPSQSLSLTCSVTGYSITSGYYWNWIRQFPGNKLEWMGYIRYDGSNNYNPSLKNRISITRDTSKNQVFLKLNSVTPEDTATYYCARHYGYDGGAFDFWGQGTTLTVSS VL: DIQMTQSPASLSASVGETVTITCRTSENIYNYLVWYQQKQGKSPQLLVYNAKTLEEGVPSRFSGSGSGTQFSLKVNSLQPEDFGSYYCQHHYGTPFTFGSGTKLEIK	nM	6.5
antibody 27A8 (antibody, V domains shown) VH: QVQLLQPGAEFVKPGASVKLSCKASGYTFTDYWINWVKQRPGQGLEWIGNIYPGSTSANYNEKFKSKATLTIDTSSITAYMQLSSLTSDDSAVYYCARYGYDSWFAYWGQGTLVTVSA VL: DVVLTQTPLSLPVNIGDQASISCKSTKSLLNSDGFTYLDWFLQKPGQSPHLLIYLVSNRFSGIPDRFSGSGSETDFTLKISRVEAEDLGVYYCFQSNYLPLTFGSGTKLEIK	nM	8.5
antibody 38G10 (antibody, V domains shown, Mouse hybridoma antibody; Parent of Hz38G10; also called parental 38G10 antibody) VH: EVQLQQSGPELVKPGDSVKMSCKASGYTFTDFYMDWVKQSHGKSLEWIGYIYPHNGGTTYNQNFTGKATLTVDKSSNTAYMELHSLTSEDSAVYYCARRGGFDFDYWGQGTTLTVSS VL: NIVMTQSPKSMSLSVGERVTLRCKASENVDTYVSWYQQKPEQSPKLLIYGASNRYTGVPDRFTGSGSATEFTLTISSVQAEDLVGYHCGQSHSYPLTFGAGTKLELK	nM	1.9
